test system: Mus musculus; assay: Antipsychotic activity in mouse assessed as protection against amphetamine-induced lethality at 5 mg/kg, ip treated 30 mins before amphetamine challenge; format: functional, organism-based; design: dose 5 mg/kg
The source made the active and inactive calls. No cut-off for these calls is given here.
measurement.label: Activity

Answered examples (4):
c1ccc(C2=Nc3ccccc3N=C(N3CCCCC3)C2)cc1 = inactive
COc1ccc(C2CCN(C3=Nc4ccccc4N=C(c4ccccc4)C3)CC2)cc1 = inactive
Cc1ccc(C2=Nc3ccccc3N=C(N3CCC(c4ccccc4)CC3)C2)cc1 = inactive
CN(C)CCCN1c2ccccc2Sc2ccc(Cl)cc21 = Active

// next item, Activity requested
Exam item: Query: Activity; subject: "Clc1ccc(C2=Nc3ccccc3N=C(N3CCC(c4ccccc4)CC3)C2)cc1"
Marked response: inactive

---

tested on: Mus musculus; assay: Antipsychotic activity in mouse assessed as protection against amphetamine-induced lethality at 5 mg/kg, ip treated 30 mins before amphetamine challenge; format: functional, organism-based; design: dose 5 mg/kg
Activity calls are given as the source filed them. The rule behind the calls is not given here.
Can you answer with just one of these options? active, inactive

Exam item: Identify the outcome logged in this assay for the molecule shown: "Cc1cc2c(cc1C)N=C(N1CCC(c3ccccc3)CC1)CC(c1ccccc1)=N2"
Marked response: inactive

Exam item: Please answer likewise for "c1ccc(C2=Nc3ccccc3N=C(N3CCC(c4ccccc4)CC3)C2)cc1"
Marked response: active

Exam item: Please answer likewise for "Cc1ccc(C2=CCN(C3=Nc4ccccc4N=C(c4ccccc4)C3)CC2)cc1"
Marked response: inactive

Exam item: Please answer likewise for "Clc1ccc(C2CCN(C3=Nc4ccccc4N=C(c4ccccc4)C3)CC2)cc1"
Marked response: active

Exam item: Please answer likewise for "CN1CCN(C2=Nc3ccccc3N=C(c3ccc(F)cc3)C2)CC1"
Marked response: inactive

Exam item: Please answer likewise for "c1ccc(C2=Nc3ccccc3N=C(N3CCN(c4ccccc4)CC3)C2)cc1"
Marked response: inactive

Exam item: Please answer likewise for "Fc1ccc(C2=Nc3ccccc3N=C(N3CCC(c4ccccc4)CC3)C2)cc1"
Marked response: active

Exam item: Please answer likewise for "COc1ccc(C2=Nc3ccccc3N=C(N3CCC(c4ccccc4)CC3)C2)cc1"
Marked response: inactive

Exam item: Please answer likewise for "c1ccc(CC2CCN(C3=Nc4ccccc4N=C(c4ccccc4)C3)CC2)cc1"
Marked response: active

Exam item: Please answer likewise for "Clc1ccc(C2=CCN(C3=Nc4ccccc4N=C(c4ccccc4)C3)CC2)cc1"
Marked response: inactive

---

biological target: Adenylate cyclase (Rattus norvegicus) (UniProt D4A3N4+P26770+Q04400+P26769+Q03343+P40146+Q8CFM9+P21932); assay: Inhibition of dopamine-sensitive rat brain adenylyl cyclase activity assessed as cAMP level at 10^-4 M
Calls of active or inactive are those of the source. No cut-off for these calls is given here.
measurement.label: inhibition

Answered examples (4):
Clc1ccc2c(c1)N=C(N1CCC(c3ccccc3)CC1)CC(c1ccccc1)=N2 = inactive
COc1ccc(C2CCN(C3=Nc4ccccc4N=C(c4ccccc4)C3)CC2)cc1 = inactive
CN1CCN(C2=Nc3ccccc3N=C(c3ccc(F)cc3)C2)CC1 = 46%
Cc1cc2c(cc1C)N=C(N1CCC(c3ccccc3)CC1)CC(c1ccccc1)=N2 = inactive

// next item, inhibition requested
Exam item: Query: inhibition; subject: "C1=C(c2ccccc2)CCN(C2=Nc3ccccc3N=C(c3ccccc3)C2)C1"
Marked response: inactive

---

test system: Rattus norvegicus; experiment: Antipsychotic activity in 0.2 mA footshock-induced conditioned stimulus rat assessed as decrease in avoidance response at 5 mg/kg, ip after 30 mins; assay type: functional, organism-based; set-up: dose 5 mg/kg
The source made the active and inactive calls. The rule behind the calls is not given here.
measurement.label: Activity

Answered examples (5):
CN1CCN(C2=Nc3cc(Cl)ccc3N=C(c3ccccc3)C2)CC1 = inactive
Cc1cc2c(cc1C)N=C(N1CCN(C)CC1)CC(c1ccccc1)=N2 = inactive
Clc1ccc(C2=Nc3ccccc3N=C(N3CCC(c4ccccc4)CC3)C2)cc1 = inactive
Cc1cc2c(cc1C)N=C(N1CCN(C)CC1)CC(c1ccc(F)cc1)=N2 = inactive
CN1CCN(C2=Nc3ccccc3N=C(c3ccc(F)cc3)C2)CC1 = inactive

// next item, Activity requested
Exam item: Query: Activity; subject: "c1ccc(C2=Nc3ccccc3N=C(N3CCC(N4CCCCC4)CC3)C2)cc1"
Marked response: inactive
